test system: c-myc in 22RV-1 cells; experiment: Human c-myc ELISA assay; format: cell-based; settings: Homo sapiens, 22Rv1, 18 h, read-out: Degradation of BRD4: Maximum inhibition (%) c-Myc ELISA in 22RV1 cells
REPORTED_METRIC: Emax
Give me the value, and tack the unit on after it.

# Emax of Cc1sc2c(c1C)C(c1ccc(Cl)cc1)=N[C@@H](CC(=O)N[C@H]1C[C@@H](Oc3ccc(OCC(=O)N[C@H](C(=O)N4C[C@H](O)C[C@H]4C(=O)N[C@@H](C)c4ccc(-c5nccn5C)cc4)C(C)(C)C)cn3)C1)c1nnc(C)n1-2 [Example 260] = 13%

# Emax of Cc1ncoc1-c1ccc([C@H](C)NC(=O)[C@@H]2C[C@@H](O)CN2C(=O)[C@H](C(C)C)n2cc(-c3ccnc(O[C@H]4C[C@@H](NC(=O)C[C@@H]5N=C(c6ccc(Cl)cc6)c6c(sc(C)c6C)-n6c(C)nnc65)C4)c3)cn2)cc1 [Example 277] = 94%

====

test system: c-myc in 22RV-1 cells; experiment: Human c-myc ELISA assay; assay type: cell-based; conditions: Homo sapiens, 22Rv1, 18 h, read-out: Degradation of BRD4: Maximum inhibition (%) c-Myc ELISA in 22RV1 cells
REPORTED_METRIC: Emax (%)
Respond with the bare value in %.

# Emax of Cc1ncsc1-c1ccc([C@H](C)NC(=O)[C@@H]2C[C@@H](O)CN2C(=O)[C@H](C(C)C)n2cc(-c3ccc(O[C@H]4C[C@H](NC(=O)C[C@@H]5N=C(c6ccc(Cl)cc6)c6c(sc(C)c6C)-n6c(C)nnc65)C4)nc3)cn2)cc1 [Example 269] = 96.4

# Emax of Cc1ncsc1-c1ccc(CNC(=O)[C@@H]2C[C@@H](O)CN2C(=O)[C@H](c2cc(OCCC(F)(F)CCNC(=O)C[C@@H]3N=C(c4ccc(Cl)cc4)c4c(sc(C)c4C)-n4c(C)nnc43)no2)C(C)C)cc1 [Example 296] = 71.4

# Emax of Cc1ncsc1-c1ccc(CNC(=O)[C@@H]2C[C@@H](O)CN2C(=O)[C@@H](NC(=O)COCCOCCOCCNC(=O)C[C@@H]2N=C(c3ccc(Cl)cc3)c3c(sc(C)c3C)-n3c(C)nnc32)C(C)(C)C)cc1 [Example 42] = 98.6

# Emax of Cc1ncsc1-c1ccc([C@H](C)NC(=O)[C@@H]2C[C@@H](O)CN2C(=O)[C@@H](NC(=O)/C=C/c2ccc(F)c(O[C@H](C)CNC(=O)C[C@@H]3N=C(c4ccc(Cl)cc4)c4c(sc(C)c4C)-n4c(C)nnc43)c2)C(C)(C)C)cc1 [Example 161] = 97

# Emax of Cc1ncsc1-c1ccc([C@H](C)NC(=O)[C@@H]2C[C@@H](O)CN2C(=O)[C@@H](NC(=O)CCc2cc(OC(C)CNC(=O)C[C@@H]3N=C(c4ccc(Cl)cc4)c4c(sc(C)c4C)-n4c(C)nnc43)ccc2F)C(C)(C)C)cc1 (some centres unmarked) [Example 151] = 96

# Emax of Cc1ncsc1-c1ccc(CNC(=O)[C@@H]2C[C@@H](O)CN2C(=O)[C@H](C(C)C)n2cc(-c3ccnc(O[C@@H](C)CNC(=O)C[C@@H]4N=C(c5ccc(Cl)cc5)c5c(sc(C)c5C)-n5c(C)nnc54)c3)cn2)cc1 [Example 180] = 98.5

# Emax of Cc1ncsc1-c1ccc([C@H](C)NC(=O)[C@@H]2C[C@@H](O)CN2C(=O)[C@@H](NC(=O)COc2ccc(N3CC[C@@H](NC(=O)C[C@@H]4N=C(c5ccc(Cl)cc5)c5c(sc(C)c5C)-n5c(C)nnc54)C3)nc2)C(C)(C)C)cc1 [Example 242] = 98

# Emax of Cc1ncsc1-c1ccc(CNC(=O)[C@@H]2C[C@@H](O)CN2C(=O)[C@@H](NC(=O)COCCCOCCOc2ccc3c(c2)c2c(C(N)=O)cc(-c4c(C)noc4C)cc2n3Cc2ccccc2)C(C)(C)C)cc1 [Example 116] = 100

====

Exercise: for every item that follows, state its recorded Emax.
test system: c-myc in 22RV-1 cells; assay: Human c-myc ELISA assay; type: cell-based; conditions: Homo sapiens, 22Rv1, 18 h, read-out: Degradation of BRD4: Maximum inhibition (%) c-Myc ELISA in 22RV1 cells
Respond with the bare value in %.

# Emax of Cc1ncsc1-c1ccc(CNC(=O)[C@@H]2C[C@@H](O)CN2C(=O)[C@@H](NC(=O)COCCCOCCCCOc2ccc3c(c2)c2c(C(N)=O)cc(-c4c(C)noc4C)cc2n3Cc2ccccc2)C(C)(C)C)cc1 [Example 117] = 100

# Emax of Cc1ncsc1-c1ccc(CNC(=O)[C@@H]2C[C@@H](O)CN2C(=O)[C@@H](C(C)C)n2cc(-c3cccc(O[C@H]4C[C@H](NC(=O)C[C@@H]5N=C(c6ccc(Cl)cc6)c6c(sc(C)c6C)-n6c(C)nnc65)C4)c3)cn2)cc1 [Example 216] = 14.4

# Emax of Cc1sc2c(c1C)C(c1ccc(Cl)cc1)=N[C@@H](CC(=O)N[C@H]1C[C@@H](Oc3cccc(-c4cnn([C@H](C(=O)N5C[C@H](O)C[C@H]5C(=O)N[C@@H](C)c5ccc(-c6nccn6C)cc5)C(C)C)c4)c3)C1)c1nnc(C)n1-2 [Example 291] = 22.2

# Emax of Cc1ncsc1-c1ccc(CNC(=O)[C@@H]2C[C@@H](O)CN2C(=O)[C@@H](NC(=O)COc2ccccc2O[C@H]2C[C@@H](NC(=O)C[C@@H]3N=C(c4ccc(Cl)cc4)c4c(sc(C)c4C)-n4c(C)nnc43)C2)C(C)(C)C)cc1 [Example 190] = 91

====

tested on: c-myc in 22RV-1 cells; test: Human c-myc ELISA assay; assay type: cell-based; conditions: Homo sapiens, 22Rv1, 18 h, read-out: Degradation of BRD4: Maximum inhibition (%) c-Myc ELISA in 22RV1 cells
REPORTED_METRIC: Emax (%)
Respond with the bare value in %.

# Emax of `Cc1ncsc1-c1ccc(CNC(=O)[C@@H]2C[C@@H](O)CN2C(=O)[C@@H](c2cc(OCCC(F)(F)CCNC(=O)C[C@@H]3N=C(c4ccc(Cl)cc4)c4c(sc(C)c4C)-n4c(C)nnc43)no2)C(C)C)cc1` = 97

# Emax of `Cc1ncsc1-c1ccc(CNC(=O)[C@@H]2C[C@@H](O)CN2C(=O)[C@@H](NC(=O)COc2ccc(O[C@H]3C[C@H](NC(=O)C[C@@H]4N=C(c5ccc(Cl)cc5)c5c(sc(C)c5C)-n5c(C)nnc54)C3)nc2)C(C)(C)C)cc1` = 98

# Emax of Cc1ncsc1-c1ccc([C@H](C)NC(=O)[C@@H]2C[C@@H](O)CN2C(=O)[C@@H](NC(=O)CCc2cc(F)cc(OC(C)CNC(=O)C[C@@H]3N=C(c4ccc(Cl)cc4)c4c(sc(C)c4C)-n4c(C)nnc43)c2)C(C)(C)C)cc1 (stereo partly shown) = 96.5

# Emax of `Cc1ncsc1-c1ccc(CNC(=O)[C@@H]2C[C@@H](O)CN2C(=O)[C@H](c2cc(Oc3ccc(O[C@H]4C[C@@H](NC(=O)C[C@@H]5N=C(c6ccc(Cl)cc6)c6c(sc(C)c6C)-n6c(C)nnc65)C4)nc3)no2)C(C)C)cc1` = 31.6

====

Exercise: for every item that follows, state its recorded Emax.
system: c-myc in 22RV-1 cells; experiment: Human c-myc ELISA assay; type: cell-based; details: Homo sapiens, 22Rv1, 18 h, read-out: Degradation of BRD4: Maximum inhibition (%) c-Myc ELISA in 22RV1 cells
Respond with the bare value in %.

# Emax of `Cc1ncsc1-c1ccc([C@H](C)NC(=O)[C@@H]2C[C@@H](O)CN2C(=O)[C@@H](C(C)C)n2cc(-c3ccnc(O[C@H]4C[C@H](NC(=O)C[C@@H]5N=C(c6ccc(Cl)cc6)c6c(sc(C)c6C)-n6c(C)nnc65)C4)c3)cn2)cc1` = 66.4

# Emax of `Cc1ncsc1-c1ccc([C@H](C)NC(=O)[C@@H]2C[C@@H](O)CN2C(=O)[C@H](n2cc(-c3ccnc(O[C@H]4C[C@@H](NC(=O)C[C@@H]5N=C(c6ccc(Cl)cc6)c6c(sc(C)c6C)-n6c(C)nnc65)C4)c3)cn2)C(C)(C)C)cc1` = 39

# Emax of `Cc1ncsc1-c1ccc([C@H](C)NC(=O)[C@@H]2C[C@@H](O)CN2C(=O)[C@@H](NC(=O)CN2CCC(N3C[C@@H]4C[C@H]3CN4C(=O)C[C@@H]3N=C(c4ccc(Cl)cc4)c4c(sc(C)c4C)-n4c(C)nnc43)CC2)C(C)(C)C)cc1` = 100

# Emax of `Cc1ncsc1-c1ccc(CNC(=O)[C@@H]2C[C@@H](O)CN2C(=O)[C@@H](NC(=O)COCCOCCOc2ccc(NC(=O)C[C@@H]3N=C(c4ccc(Cl)cc4)c4c(sc(C)c4C)-n4c(C)nnc43)cc2)C(C)(C)C)cc1` = 100

# Emax of `Cc1ncsc1-c1ccc([C@H](C)NC(=O)[C@@H]2C[C@@H](O)CN2C(=O)[C@@H](C(C)C)n2cc(-c3cc(F)cc(O[C@H]4C[C@@H](NC(=O)C[C@@H]5N=C(c6ccc(Cl)cc6)c6c(sc(C)c6C)-n6c(C)nnc65)C4)c3)cn2)cc1` = 83

# Emax of `Cc1ncsc1-c1ccc(CNC(=O)[C@@H]2C[C@@H](O)CN2C(=O)[C@@H](NC(=O)COCCCCNC(=O)C[C@@H]2N=C(c3ccc(Cl)cc3)c3c(sc(C)c3C)-n3c(C)nnc32)C(C)(C)C)cc1` = 100

# Emax of `Cc1ncsc1-c1ccc(CNC(=O)[C@@H]2C[C@@H](O)CN2C(=O)[C@@H](NC(=O)COCCCCCOc2cccc(NC(=O)C[C@@H]3N=C(c4ccc(Cl)cc4)c4c(sc(C)c4C)-n4c(C)nnc43)c2)C(C)(C)C)cc1` = 99.5

# Emax of `Cc1noc(-c2ccc([C@H](C)NC(=O)[C@@H]3C[C@@H](O)CN3C(=O)[C@@H](NC(=O)Cc3ccc(O[C@H]4C[C@H](NC(=O)C[C@@H]5N=C(c6ccc(Cl)cc6)c6c(sc(C)c6C)-n6c(C)nnc65)C4)cc3)C(C)(C)C)cc2)n1` = 50.1

# Emax of `Cc1ncsc1-c1ccc([C@H](C)NC(=O)[C@@H]2C[C@@H](O)CN2C(=O)[C@@H](NC(=O)CN2CCN(C3CC4(C3)CN(C(=O)C[C@@H]3N=C(c5ccc(Cl)cc5)c5c(sc(C)c5C)-n5c(C)nnc53)C4)[C@@H](C)C2)C(C)(C)C)cc1` = 100

# Emax of `Cc1ncsc1-c1ccc(CNC(=O)[C@@H]2C[C@@H](O)CN2C(=O)[C@H](C(C)C)N2Cc3ccccc3C2=O)c(OCCOCCOCCOCCOCCOCCNC(=O)C[C@@H]2N=C(c3ccc(Cl)cc3)c3c(sc(C)c3C)-n3c(C)nnc32)c1` = 100

# Emax of Cc1ncsc1-c1ccc(CNC(=O)[C@@H]2C[C@@H](O)CN2C(=O)[C@@H](NC(=O)COCCOCCOCCNC(=O)CC2N=C(c3ccc(Cl)cc3)c3c(sc(C)c3C)-n3c(C)nnc32)C(C)(C)C)cc1 (stereo partly shown) = 100

# Emax of Cc1ncsc1-c1ccc([C@H](C)NC(=O)[C@@H]2C[C@@H](O)CN2C(=O)C(C(C)C)n2cc(-c3cccc(OCCNC(=O)C[C@@H]4N=C(c5ccc(Cl)cc5)c5c(sc(C)c5C)-n5c(C)nnc54)c3)cn2)cc1 (stereo partly shown) = 100

# Emax of Cc1sc2c(c1C)C(c1ccc(Cl)cc1)=NC(CC(=O)N[C@H]1C[C@H](Oc3ccc(CC(=O)N[C@H](C(=O)N4C[C@H](O)C[C@H]4C(=O)N[C@@H](C)c4ccc(C#N)cc4)C(C)(C)C)cc3)C1)c1nnc(C)n1-2 (stereo partly shown) = 65.4

# Emax of `Cc1ncsc1-c1ccc([C@H](C)NC(=O)[C@@H]2C[C@@H](O)CN2C(=O)[C@H](NC(=O)CN2CCC(O[C@H]3C[C@H](NC(=O)C[C@@H]4N=C(c5ccc(Cl)cc5)c5c(sc(C)c5C)-n5c(C)nnc54)C3)CC2)C(C)(C)C)cc1` = 46

# Emax of `Cc1ncsc1-c1ccc(CNC(=O)[C@@H]2C[C@@H](O)CN2C(=O)[C@@H](NC(=O)COCCCOCCCOc2ccc(NC(=O)C[C@@H]3N=C(c4ccc(Cl)cc4)c4c(sc(C)c4C)-n4c(C)nnc43)cc2F)C(C)(C)C)cc1` = 92

# Emax of `Cc1ncsc1-c1ccc([C@H](C)NC(=O)[C@@H]2C[C@@H](O)CN2C(=O)[C@H](C(C)C)n2cc(-c3cc(F)cc(O[C@H]4C[C@H](NC(=O)C[C@@H]5N=C(c6ccc(Cl)cc6)c6c(sc(C)c6C)-n6c(C)nnc65)C4)c3)cn2)cc1` = 95.4
